ASSAY SYSTEM: T1, MCL-1 (mouse, residues 152-308) (mouse)
T1 construct: remnant of thrombin cleavage at the N-terminus of MCL-1; MCL-1, mouse, residues 152-308, UniProt P97287; source: E. coli C41 pLysS, purified (Ni2+ agarose, thrombin cleavage, ion exchange, Superdex G75 gel filtration); not shown: His6, N-terminal, cleaved
T1 chain: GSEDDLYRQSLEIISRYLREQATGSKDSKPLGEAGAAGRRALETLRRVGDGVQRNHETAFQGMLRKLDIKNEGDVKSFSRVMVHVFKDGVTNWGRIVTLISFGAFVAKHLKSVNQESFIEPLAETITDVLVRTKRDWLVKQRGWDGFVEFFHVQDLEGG
ASSAY DETAILS: stopped-flow fluorescence kinetics; association; TAMRA-labelled peptide with folded partner at least 10-fold higher (pseudo-first-order); kon from the gradient of kobs versus partner concentration; 25 °C; 50 mM sodium phosphate, 0.05% (v/v) Tween 20, pH 7.0
CONDITION DETAILS: both partners purified
Where no end group is shown, it is not given here. The star is where a group is joined. TAMRA = 5-carboxytetramethylrhodamine, CN(C)c1ccc2c(-c3ccc(C(=O)*)cc3C(=O)[O-])c3ccc(=[N+](C)C)cc-3oc2c1
// values below are reported kon
State the answer as a number, implicitly in M⁻¹ s⁻¹.

Request the reported kon associated with {TAMRA}-SESQEEIAHNIARHLAQIGDEMDHNIQPTLVRQLA (peptide, UniProt P70444 76-110, looked up, BID, mouse, residues 76-110, UniProt P70444; source: synthetic peptide (Biomatik)) [BID I83A peptide, TAMRA-labelled]
8.6e+06

Request the reported kon associated with {TAMRA}-SESQEEIIHNIAGHLAQIGDEMDHNIQPTLVRQLA (peptide, UniProt P70444 76-110, looked up, BID, mouse, residues 76-110, UniProt P70444; source: synthetic peptide (Biomatik)) [BID R88G peptide, TAMRA-labelled]
8.3e+06

Request the reported kon associated with {TAMRA}-SESQEEIIHNIARHLAQAGDEMDHNIQPTLVRQLA (peptide, UniProt P70444 76-110, looked up, BID, mouse, residues 76-110, UniProt P70444; source: synthetic peptide (Biomatik)) [BID I93A peptide, TAMRA-labelled]
4.5e+06

Request the reported kon associated with {TAMRA}-SESQEAIIHNIARHLAQIGDEMDHNIQPTLVRQLA (peptide, UniProt P70444 76-110, looked up, BID, mouse, residues 76-110, UniProt P70444; source: synthetic peptide (Biomatik)) [BID E81A peptide, TAMRA-labelled]
6.5e+06

Request the reported kon associated with {TAMRA}-SESQEEIIHNIARHLAQIGDEMDANIQPTLVRQLA (peptide, UniProt P70444 76-110, looked up, BID, mouse, residues 76-110, UniProt P70444; source: synthetic peptide (Biomatik)) [BID H99A peptide, TAMRA-labelled]
9.2e+06

Hey, just so you know, these numbers are from paper PMC6016464.
